Test system: HOP-92 NSCLC
Assay: NCI tumour cell line growth inhibition, 48 h
Would you kindly list TGI for each of these compounds?

Consider the following illustrative entries.
COc1cc([C@@H]2c3cc4c(cc3[C@@H](NCc3ccc(C#N)cc3)C3COC(=O)[C@@H]32)OCO4)cc(OC)c1O (stereo partly specified) : 49.4 µM
COc1ccccc1N1CCN(C(=O)c2ccc(NS(=O)(=O)c3cccc4cccnc34)cc2)CC1 : > 100 µM
COC(OC)(c1ccccc1)C(I)I : 26.7 µM

Would you be so kind as to report TGI for each listed record?
1. Oc1ccc2ccccc2c1N=Nc1ccccn1
2. N#CC(N=Nc1ccccc1)c1nc2ccccc2o1 (stereo unspecified)
3. N#Cc1ccc(-c2nc3ccc(Cl)cc3[nH]2)cc1

Data returned:
> 100 µM
46.7 µM
> 100 µM

* * *

System: M14 melanoma
Experiment: NCI tumour cell line growth inhibition, 48 h
property-label: TGI

Solved entries (count: 6):
N/C(=N\c1nc2ccccc2s1)NC(=O)Nc1ccccc1Cl : 2.14 µM
NC(=O)c1cc(Cl)ccc1NC(=O)c1ccccc1-c1ccccc1 : 3.96 µM
C=Cc1cc2c(cc1O)CC[C@@H]1[C@@H]2CC[C@]2(C)[C@@H](O)CC[C@@H]12 : 17.7 µM
COc1cc2cc(C(=O)N3CC(CCl)c4c3cc(N(C)C)c3ccccc43)[nH]c2c(OC)c1OC (centres undefined) : 0.0185 µM
O=S1c2ccccc2N=C(c2ccc(Cl)cc2)CC1c1cccs1 (centres undefined) : 37.4 µM
COc1ccc(C[C@H]2COC(=O)[C@@H]2Cc2ccc(O)cc2)cc1OC : > 100 µM

Hey, can you go through the list below and give me TGI for every item?
1. Cc1ccc(C(=O)CCC2C(=O)CC(C)(C)CC2=O)cc1
2. CCN(CC)CCOC(=O)/C(=C/c1ccc(OC)cc1)c1cc(OC)c(OC)c(OC)c1
3. COc1ccccc1N1CCN(C(=O)c2ccc(NS(=O)(=O)c3cccc4cccnc34)cc2)CC1
4. CCn1c(-c2ccc(C)cc2)cs/c1=N\C(P(=O)(O)O)P(=O)(O)O
5. O=C1NC(=O)C(=O)C(c2nc3ccccc3s2)C1=O
6. O=C1C(Cl)=C(Nc2cccc(O)c2)C(=O)N1c1cccc(Cl)c1
7. O=CC1OC(=O)c2cc(O)c(O)c(O)c2-c2c(cc(O)c(O)c2O)C(=O)OC1C(O)C(O)CO (centres undefined)

Data returned:
1. > 100 µM
2. 19.9 µM
3. > 100 µM
4. > 100 µM
5. > 100 µM
6. > 100 µM
7. > 100 µM

Give me TGI for each of these compounds, listed below.
1. C[C@@H](NC1CCC[C@@H]1O)c1ccccc1 (some centres undefined)
2. O=C(CN1CCOCC1)CC(O)(C(F)(F)F)C(F)(F)F
3. COc1ccc(CCCC(=O)O)c(C)c1

Data returned:
["> 100 µM", "> 100 µM", "> 100 µM"]

Would you mind giving TGI for every compound in the list below?
1. CC(Oc1ccc(OCC2CCCCC2)cc1)C(=O)O (centres undefined)
2. CC12CC3(O)OC(O1)C1(COC(=O)c4ccccc4)C3CC21OC1OC(CO)C(O)C(O)C1O (centres undefined)
3. O=c1ccccc(-c2ccc(-c3ccco3)cc2)c1O
4. CC(C(=O)c1ccccc1)C1(O)C(=O)Nc2ccccc21 (centres undefined)
5. O=C(O[C@H]1CN[C@H](C#Cc2cc3ncnc(Nc4ccc(OCc5cccc(F)c5)c(Cl)c4)c3s2)C1)N1CCOCC1
6. COc1cc(/C=C2\CN(S(=O)(=O)c3ccc(C)cc3)C/C(=C\c3cc(CN4CCCCC4)c(O)c(OC)c3)C2=O)cc(CN2CCCCC2)c1O

Data returned:
["> 100 µM", "> 100 µM", "6.11 µM", "> 100 µM", "> 25 µM", "3.27 µM"]

For every listed record, write down its TGI.
1. COc1ccc(CCc2ccc(O)c(C(=O)O)c2)cc1OC
2. CC1OC(O[C@H]2/C=C/C=C/C=C/C=C/C=C/C=C/C=C/[C@H](C)[C@@H](O)[C@@H](C)[C@H](C)OC(=O)C[C@H](O)C[C@H](O)CC[C@@H](O)[C@H](O)C[C@H](O)C[C@]3(O)C[C@H](O)[C@@H](C(=O)O)[C@H](C2)O3)C(O)C(N)C1O (some centres undefined)
3. CC(=O)c1c(-c2ccccc2)c(-c2ccc(OCCN(C)C)cc2)n2ccccc12

Data returned:
1. > 100 µM
2. 29.2 µM
3. 30.8 µM

* * *

Test system: HOP-92 NSCLC
Assay: NCI tumour cell line growth inhibition, 48 h
property-label: TGI

Before answering, review these 2 worked examples.
C[C@@H](Oc1cc(NS(=O)(=O)N2CCC2)nc(SCc2cccc(F)c2F)n1)[C@@H](O)CO : > 100 µM
NCCCc1c(-c2ccccc2)nc(N)[nH]c1=O : > 100 µM

Below: the item to evaluate.
Data request: Form field: reported TGI of O=C(/C=C\Nc1ccccc1O)C(Cl)(Cl)Cl
Data returned: > 100 µM

* * *

Test system: SF-295 CNS
Assay: NCI tumour cell line growth inhibition, 48 h
property-label: TGI

O=C(OCC1CCCN2CCCCC12)c1ccncc1 (centres undefined) : > 100 µM
NC(Cc1c[nH]c2ccccc12)C(=O)O (centres undefined) : > 300 µM
CC(=O)O[C@H]1C(=O)[C@@]2(C)[C@H]([C@H](OC(=O)c3ccccc3)[C@]3(O)C[C@H](OC(=O)[C@H](O)[C@@H](NC(=O)CC(C)C)c4ccccc4)C(C)=C1C3(C)C)[C@]1(OC(C)=O)CO[C@@H]1C[C@@H]2O : 0.508 µM

State the recorded TGI for every item in the following list.
1. COc1ccc(CCc2ccc(O)c(C(=O)O)c2)cc1OC
2. Cn1c2ccccc2n2c(=O)c3cccnc3c(C#N)c12
3. CC1(C)C[C@H](O)[C@H](O)[C@]23C(=O)O[C@H](O)[C@H]2C(C=O)=CC[C@@H]13
4. Cc1ccc([N+](=O)[O-])cc1S(=O)(=O)Nc1ccc(C2=NNC(c3cccs3)C2)cc1 (centres undefined)
5. O=C1/C(=C/c2ccccc2Br)COc2ccc(O)c(O)c21
6. COc1ccccc1N1CCN(C(=O)c2ccc(NS(=O)(=O)c3cccc4cccnc34)cc2)CC1
7. Cc1ccc(C(=O)CCC2C(=O)CC(C)(C)CC2=O)cc1

Data returned:
> 100 µM
> 100 µM
> 100 µM
63.9 µM
8.04 µM
> 100 µM
> 100 µM

* * *

Kindly state TGI for each of the entries shown.
Test system: SNB-75 CNS
Assay: NCI tumour cell line growth inhibition, 48 h

c1ccc(/N=C2\c3ccccc3CN2c2ccccn2)nc1 : > 100 µM
CCN(CC)C(=O)CNC(=O)OC(C)(C)C : > 100 µM

With those in mind, consider the next compound.
Data request: Quick check: TGI of N#Cc1nn(C2OC(COC(=O)c3ccccc3)C(OC(=O)c3ccccc3)C2OC(=O)c2ccccc2)c2nc[nH]c(=O)c12 (stereo not drawn) ?
Data returned: > 100 µM

* * *

System: MOLT-4 leukemia
Assay: NCI tumour cell line growth inhibition, 48 h
Assignment: determine reported TGI for the given compounds.

Check out these entries, answers already filled in.
CNC(=O)c1cncc(/C=C/c2c(C)cccc2C)c1 : > 25 µM
COc1cc2c3c(n(Cc4ccccc4)c(=O)c2cc1OC)-c1ccccc1C3=O : > 100 µM
CC(=O)Nc1ccc2oc(=O)c3ccccc3c2c1 : > 100 µM

Next:
Data request: Quick check: TGI of S=C(c1c[nH]c2ccccc12)N1CCN(c2ccccc2)CC1 ?
Data returned: > 100 µM

* * *

Please provide measured TGI for the entries that follow.
System: 786-0 renal
Test: NCI tumour cell line growth inhibition, 48 h
Where a SMILES comes first, the peptide text is derived from it. [ ]: non-standard residue; d: D form. The star is where a group is joined. ξ: configuration not given here. Propanoyl(3-(4-MeO-Ph)) = COc1ccc(CCC(=O)*)cc1; Thr(3ξ) = CC(O)[C@H](N)C(=O)O; dNMeL = CN[C@H](CC(C)C)C(=O)O; OBn = c1ccc(CO*)cc1; ξLac = CC(O)C(=O)O

For orientation, consider the following solved cases.
Cc1ccc(Nc2sc(C)cc2C#N)c([N+](=O)[O-])c1 : > 100 µM
COc1cc2c(=O)n(CCCn3ccnc3)c3c4cc5c(cc4ccc3c2cc1OC)OCO5 : > 100 µM
CN(C)Cc1cccc(CN(C)C)[c]1[Sn]([Br])([c]1ccccc1)[c]1ccccc1 : 29 µM
N=C1C(c2nc3ccccc3s2)=C(O)CN1c1ccc(Cl)cc1Cl : 48.2 µM
Cc1ccc(NC(=O)CC/C(CC(=O)c2ccc(Cl)cc2)=N\NC(=O)C(=O)NN)cc1C : > 100 µM
OCCN=C1c2ccccc2C2C(c3ccccc31)C1c3ccccc3C(=NCCO)c3ccccc3C21 (stereo not given) : 47.2 µM
CC(=O)O[C@H]1C(=O)[C@@]2(C)[C@H]([C@H](OC(=O)c3ccccc3)[C@]3(O)C[C@H](OC(=O)[C@H](O)[C@@H](NC(=O)CC(C)C)c4ccccc4)C(C)=C1C3(C)C)[C@]1(OC(C)=O)CO[C@@H]1C[C@@H]2O : > 10 µM
C=C1SC(=Nc2ccccc2Cl)N(C(=O)c2sc3ccccc3c2Cl)C1(C)C : > 81.9 µM

Need TGI for each of these compounds.
1. O=C(O)CCSC(=O)Nc1cccc([N+](=O)[O-])c1
2. COc1cc2ccc(/C(C)=N/OC(C)=O)cc2cc1OC
3. NC1=NC(c2ccccc2)CC(c2cc(Cl)cc(Br)c2O)=N1 (stereo not given)
4. N#CC(C(=O)CCC(=O)Nc1ccc(Cl)cc1)c1ccccc1Cl (stereo not given)
5. COc1ccc(C[C@H]2COC(=O)[C@@H]2Cc2ccc(O)cc2)cc1OC
6. O=C1CCCCC[C@]12SC[C@H]1CON=C12
7. CC(=O)O[C@H]1CC[C@@]2(C)C(=CC[C@@H]3[C@@H]2CC[C@]2(C)c4c(cc(C#N)c(=N)n4C(C)=O)C[C@@H]32)C1
8. COc1ccc(CCC(=O)OC(C)[C@H](NC(=O)[C@@H](CC(C)C)N(C)C(=O)[C@@H]2CCCN2C(=O)C(C)O)C(=O)OCc2ccccc2)cc1 (stereo not given in full) (H-[ξLac]P[dNMeL][Thr(3ξ)](Propanoyl(3-(4-MeO-Ph)))-OBn)

Data returned:
1: > 100 µM; 2: > 100 µM; 3: 31.5 µM; 4: > 100 µM; 5: > 100 µM; 6: > 100 µM; 7: 58.3 µM; 8: > 100 µM

These measurements were taken from PubChem BioAssay (NCI).
